Data origin: patent US20090291081A1

# experimental system: human IL-1β (human, UniProt P01584 117-269)
# assay details: cell-based or functional assay
The entries below are paired with their reported ND50.

Example entries and their recorded answers appear below.
{"binder": "ABT2-59 (other, VK dAb) VL: DIQMTQSPSSLSASVGDRVTITCRASQSINVFLSWYQQKPGKAPKLLIYNASNLQSGVPSRFSGSGSGTDFTLTISSLQPEDFATYYCQQRALYPTTFGQGTKVEIKR", "ND50": "> 1 µM"}
{"binder": "ABT2-67 (other) VL: DIQMTQSPSSLSASVGDRVTITCRASQYIGEHLAWYQQKPGKAPKLLIYHNSALQSGVPSRFSGSGSGTDFTLTISSLQPEDFATYYCQQHAFLPNTFGQGTKVEIKR", "ND50": "> 10 µM"}
{"binder": "ABT2-39 (other) VH: EVQLLESGGGLVQPGGSLRLSCAASGFTFRAYDMGWVRQAPGKGLEWVSVIYAWGTSTYYADSVKGRFTISRDNSKNTLYLQMNSLRAEDTAVYYCAKIDRDASLPTGEGFDYWGQGTLVTVSS", "ND50": "> 10 µM"}

Short answer for ABT2-7 (other) VL: DIQMTQSPSSLSASVGDRVTITCRASQSIKSGLNWYQQKPGKAPKLLIYMASQLQSGVPSRFSGSGSGTDFTLTISSLQPEDFATYYCQQWHRPPSTFGQGTKVEIKR : ND50 was > 20 µM

Entry ABT2-68 (other) VL: DIQMTQSPSSLSASVGDRVTITCRASQNIWYHLNWYQQKPGKAPKLLIYLGSRLQSGVPSRFSGSGSGTDFTLTISSLQPEDFATYYCQQIHHDPFTFGQGTKVEIKR , ND50 reported as > 10 µM

Lookup result for ABT2-66 (other) VH: EVQLLESGGGLVQPGGSLRLSCAASGFTFSHYTMAWVRQAPGKGLEWVSTIGSSGNSTYYADSVKGRFTISRDNSKNTLYLQMNSLRAEDTAVYYCAQMRGPYYTFDYRGQGTLVTVSS ; measured ND50: > 10 µM
